B1: tRNA (parent)
chain: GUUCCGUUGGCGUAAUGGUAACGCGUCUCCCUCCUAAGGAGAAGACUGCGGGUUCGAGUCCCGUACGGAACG

# Variants of: B1
# TEST DESCRIPTION: yeast fitness relative to wild type (ratio to wild type); higher = fitter; tRNA-Arg(CCU), competitive growth, 37 C, YPD
Variants at the floor of the assay were thinned out.
RECORDED METRIC: yeast fitness

According to the records, this variant U13C A21C C31U displays yeast fitness of ≤ 0.5

According to the records, this variant A14U G39A displays yeast fitness of 0.671

According to the records, this variant U13C G44C G58C displays yeast fitness of 0.661

According to the records, this variant C4A C46G C55G displays yeast fitness of ≤ 0.5

According to the records, this variant C5U G9A G10C G25A C33G G39A displays yeast fitness of ≤ 0.5

According to the records, this variant U2G G9C G12A U32C A42C C46A A65U displays yeast fitness of ≤ 0.5
